This collection of values is drawn from the supplement of paper PMC3545927.

Target: furin, P09958;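 also: purified furin at 1:10 enzyme:substrate in 50 mM HEPES pH 7.5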
Sequence (P09958 whole entry): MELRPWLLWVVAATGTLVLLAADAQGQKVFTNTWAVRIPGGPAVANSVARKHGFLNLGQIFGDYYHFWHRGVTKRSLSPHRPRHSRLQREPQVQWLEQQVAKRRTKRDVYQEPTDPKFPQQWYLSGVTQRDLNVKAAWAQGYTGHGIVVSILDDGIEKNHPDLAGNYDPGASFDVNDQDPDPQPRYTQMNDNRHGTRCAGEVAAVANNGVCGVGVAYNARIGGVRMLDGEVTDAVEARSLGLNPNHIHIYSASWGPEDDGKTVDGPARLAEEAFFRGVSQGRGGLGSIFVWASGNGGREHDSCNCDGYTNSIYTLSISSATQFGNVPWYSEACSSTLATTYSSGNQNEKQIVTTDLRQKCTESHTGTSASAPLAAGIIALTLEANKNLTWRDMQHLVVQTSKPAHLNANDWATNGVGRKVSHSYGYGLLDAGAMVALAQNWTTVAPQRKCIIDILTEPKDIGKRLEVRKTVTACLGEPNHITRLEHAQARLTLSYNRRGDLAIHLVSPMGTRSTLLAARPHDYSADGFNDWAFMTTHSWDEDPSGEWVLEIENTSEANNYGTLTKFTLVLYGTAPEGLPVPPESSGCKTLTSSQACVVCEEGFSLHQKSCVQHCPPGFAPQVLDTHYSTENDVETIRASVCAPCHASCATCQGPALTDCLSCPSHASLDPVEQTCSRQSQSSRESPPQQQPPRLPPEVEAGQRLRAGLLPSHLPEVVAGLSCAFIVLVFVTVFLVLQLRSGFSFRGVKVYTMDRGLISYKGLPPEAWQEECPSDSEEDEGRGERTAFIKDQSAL
Assay: furin cleavage Z-score vs untreated control; higher = more cleavage, active = 3.5 or more, inactive = 1 or less, 8 variable residues between constant flanks
Details: 15 min
The other results are listed elsewhere or left out. The true hit rate is not given.
In this exercise, the only acceptable responses are yes (1) for active, no (0) for inactive

Known results for sequences:
Hello, I am checking results. What call was entered for CAAVRTKLKLAGNASASA [HC1635] ?
no (0)

Hello, I am checking results. What call was entered for CARQRRAITVAGNASASA [FS-2509] ?
yes (1)

---
Hello, I am checking results. What call was entered for CAAAQLAAPGAGNASASA [HC1069] ?
no (0)

Hello, I am checking results. What call was entered for CAPARRSVLAAGNASASA [FS-1987] ?
no (0)
